System: ragweed (common ragweed, Ambrosia artemisiifolia)
TEST_METHOD_NOTES: Test A postemergence application, visual injury rating 0-100
Assay type: in vivo
CONDITION: 31 g ai/ha, postemergence, 10 days, 0 = no effect, 100 = complete control
MEASUREMENT_LABEL: Ragweed plant response rating (0-100)
No unit in the answer, please; the number alone is enough.

Example results:
- CC(C)COC(=O)C1=CCC(NC(=O)C2(C)CN(c3cc(F)cc(F)c3)C(=O)O2)C1 (stereo not drawn): 40
- CSCCOC(=O)C1=CCC(NC(=O)C2(C)CN(c3cc(F)cc(F)c3)C(=O)O2)C1 (stereo not drawn): 0
- CCOC(=O)C1=CCC(NC(=O)C2(C)CN(c3cc(F)cc(F)c3)C(=O)O2)C1 (stereo not drawn): 40
- CC1(C(=O)NC2CC=C(C(=O)O)C2)CN(c2cc(F)cc(F)c2)C(=O)O1 (stereo not drawn): 20

Request: Determine reported Ragweed plant response rating (0-100) for COC(=O)C1CCC(NC(=O)C2(C)CN(c3cc(F)cc(F)c3)C(=O)O2)C1 (stereo not drawn) ; test system: ragweed (common ragweed, Ambrosia artemisiifolia).
Response: 0

Request: Determine reported Ragweed plant response rating (0-100) for CC(C)COC(=O)C1C=CC(NC(=O)C2(C)CN(c3cc(F)cc(F)c3)C(=O)O2)C1 (stereo not drawn) ; test system: ragweed (common ragweed, Ambrosia artemisiifolia).
Response: 50

Origin of the recorded values: patent US20260285850A1
